protocol-notes: in-vitro metabolic stability in rat serum
Assay type: in vitro ADME
run-parameters: 25% (v/v) rat serum, 37° C., after 24 h; read-out: remaining compound in rat serum
Where a SMILES comes first, the peptide text is derived from it. [ ]: non-standard residue; d: D form. Aib = CC(C)(N)C(=O)O
outcome-measure: remaining at 24 h, 66.6 µmol/L

compound: CC(=O)N[C@@H](C)C(=O)N[C@@H](CCC(N)=O)C(=O)N[C@@H](CC(C)C)C(=O)N[C@@H](CC(C)C)C(=O)NC(C)(C)C(=O)N[C@@H](Cc1ccc(O)cc1)C(=O)N[C@@H](Cc1ccc(O)cc1)C(=O)N[C@@H](Cc1ccccc1)C(=O)N[C@H](C(=O)N[C@@H](CCC(=O)O)C(=O)N[C@@H](CC(C)C)C(=O)N[C@@H](CCCCN)C(N)=O)[C@@H](C)O [7a′] (Ac-AQLL[Aib]YYFTELK-NH2; N-terminus and C-terminus assumed)
measured-value: ~65%

* * *

study-target: VDAC (Homo sapiens)
Construct: HEK-293 cells, expressing VDAC and HK; endogenous in cells; host or cells: HEK-293 (ATCC), transfected only with the Ca2+ probes mitoGCaMP2 / GCaMP2
Sequence (P21796 2-283): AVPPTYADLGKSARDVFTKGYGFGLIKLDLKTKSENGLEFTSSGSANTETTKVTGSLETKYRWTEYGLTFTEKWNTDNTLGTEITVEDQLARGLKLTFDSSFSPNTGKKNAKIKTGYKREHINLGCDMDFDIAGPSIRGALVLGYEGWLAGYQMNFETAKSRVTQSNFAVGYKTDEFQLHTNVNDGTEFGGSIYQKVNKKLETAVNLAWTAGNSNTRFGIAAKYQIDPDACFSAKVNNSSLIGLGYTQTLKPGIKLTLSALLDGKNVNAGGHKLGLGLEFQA
protocol-notes: in-cellulo screening assay: HEK-293 cells transfected with mitoGCaMP2, MJ-induced mitochondrial Ca2+ release through VDAC
Assay type: cell-based
run-parameters: compounds at 3 μM, MJ 6 mM; compared with 3c, 4d or 5x
Where no end group is shown, it is not given here. [ ]: non-standard residue; d: D form. Nle = CCCC[C@H](N)C(=O)O
outcome-measure: activity / affinity for VDAC on the screening assay (mitoGCaMP2 fluorescence)

substance: [Nle]IAAQWLAYYY [6m]
study-target: VDAC (Homo sapiens)
measured-value: equally accommodated
//
substance: AQWLAYYLTELK [5l, tested peptide also contains Tat]
study-target: VDAC (Homo sapiens)
measured-value: beneficial effect
//
substance: [Nle]IAAQLWAYYY [6o]
study-target: VDAC (Homo sapiens)
measured-value: equally accommodated
//
substance: AQWWAYYFTEWK [5x, tested peptide also contains Tat]
study-target: VDAC (Homo sapiens)
measured-value: more significant
//
substance: AQWLAYYYTELK [5m, tested peptide also contains Tat]
study-target: VDAC (Homo sapiens)
measured-value: equally accommodated
//
substance: AQLWAYYYTEWK [5t, tested peptide also contains Tat]
study-target: VDAC (Homo sapiens)
measured-value: beneficial effect
//
substance: [Nle]IAAQWWAYYL [6q]
study-target: VDAC (Homo sapiens)
measured-value: more significant
//
substance: AQWWAYYYTEWK [5z, tested peptide also contains Tat]
study-target: VDAC (Homo sapiens)
measured-value: more significant

* * *

protocol-notes: in-vitro metabolic stability in rat serum
Assay type: in vitro ADME
run-parameters: 25% (v/v) rat serum; 25% rat serum, after 5 min, preliminary experiment; read-out: remaining peptide in rat serum

substance: Ac-AQLLAYYFTELKGRKKRRQRRRPPQ-NH2 [3c]
value-unit: %
remaining at 5 min, 66.6 µmol/L: 10

# credit: patent US20240228987A1
